Reported IC50 values are given for each entry in this list.
target: catalytic domain (JH1, amino acids 826-1132) of human JAK2 (Homo sapiens, UniProt O60674); construct: catalytic domain (JH1, amino acids 826-1132) of human JAK2; FLAG (N); assay: JAK2 LanthaScreen JH1 Binding Assay; details: 50 nM fluorescent JAK2-JH1 tracer, 2 hours at 25° C.; read-out: JH1 BIND (EX. A)
Sequence (O60674 826-1132): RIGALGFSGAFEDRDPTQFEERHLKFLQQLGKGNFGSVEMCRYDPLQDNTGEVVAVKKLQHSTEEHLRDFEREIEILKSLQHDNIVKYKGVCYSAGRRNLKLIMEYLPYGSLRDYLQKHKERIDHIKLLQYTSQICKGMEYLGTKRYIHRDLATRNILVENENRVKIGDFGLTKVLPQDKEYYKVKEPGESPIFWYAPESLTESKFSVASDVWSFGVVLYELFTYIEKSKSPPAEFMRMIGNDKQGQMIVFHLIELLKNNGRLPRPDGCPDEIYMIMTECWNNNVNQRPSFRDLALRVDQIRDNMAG

# annotated cases, reported IC50 shown
compound	IC50
COC(=O)N[C@@H]1CC[C@@H](n2c(=O)n(C)c3cnc(Nc4ccc5cccc(Br)c5n4)cc32)C1	> 1000 nM
COC(=O)N[C@@H]1CC[C@@H](n2c(=O)n(C)c3cnc(Nc4ccc5cccc(C(F)F)c5n4)cc32)C1	> 1000 nM
[2H]C([2H])([2H])n1c(=O)n([C@@H]2CC[C@@H](NC(=O)OC)C2)c2cc(Nc3cnc4cccc(C#N)c4n3)ncc21	100 to 500 nM
[2H]C([2H])([2H])n1c(=O)n([C@@H]2CC[C@@H](NC(=O)OC)C2)c2cc(Nc3cc(CC#N)c4cccc(C(F)(F)F)c4n3)ncc21	500 to 1000 nM

Which IC50 reading was recorded for the compound "[2H]C([2H])([2H])n1c(=O)n([C@@H]2CC[C@@H](NC(=O)OC)C2)c2cc(Nc3ccc4cncc(C)c4n3)ncc21" ?
> 1000 nM

Which IC50 reading was recorded for the compound "[2H]C([2H])([2H])n1c(=O)n([C@H]2C[C@H](NC(=O)OC3CC3)C2)c2cc(Nc3cc(C(C)(C)O)c4cccc(C(F)(F)F)c4n3)ncc21" ?
100 to 500 nM

Which IC50 reading was recorded for the compound "COC(=O)N[C@@H]1CC[C@@H](n2c(=O)n(C)c3cnc(Nc4cc(Cl)c5cccc(C(F)(F)F)c5n4)cc32)C1" ?
> 1000 nM

---

Reported pIC50 values are given for each entry in this list.
target: catalytic domain (JH1, amino acids 826-1132) of human JAK2 (Homo sapiens, UniProt O60674); construct: catalytic domain (JH1, amino acids 826-1132) of human JAK2; FLAG (N); assay: JAK2 LanthaScreen JH1 Binding Assay; details: 50 nM fluorescent JAK2-JH1 tracer, 2 hours at 25° C.; read-out: JH1 BIND (EX. A)
pIC50: −log10 of the molar value.

# annotated cases, reported pIC50 shown
compound	reading
COC(=O)N[C@H]1CC[C@H](n2c(=O)n(C)c3cnc(Nc4ccc5cccc(Cl)c5n4)cc32)C1 [Example 40]	< 6.00
[2H]C([2H])([2H])n1c(=O)n([C@@H]2CC[C@@H](NC(=O)OC)C2)c2cc(Nc3cc(S(C)(=O)=O)c4cccc(C(F)(F)F)c4n3)ncc21 [Example 6]	< 6.00

Which pIC50 reading was recorded for the compound [2H]C([2H])([2H])n1c(=O)n([C@@H]2CC[C@@H](NC(=O)OC)C2)c2cc(Nc3cc(NC(=O)COC)c4cccc(C(F)(F)F)c4n3)ncc21 [Example 22] ?
< 6.00

---

biological target: pseudo-kinase domain (JH2, amino-acids 536-812) of human Wild Type JAK2 (Homo sapiens, UniProt O60674, F794H/W659A/W777A); construct: JH2, amino-acids 536-812 with 3 surface mutations W659A, W777A, F794H; His (C); purchased BPS Bioscience 79463; host or cells: baculovirus expression system; assay: JAK2 LanthaScreen JH2-WT Binding Assay; conditions: 50 nM Fluorescent JAK2-JH2 Tracer, 1 hour at 25° C.; read-out: JH2 BIND WT (EX. B)
Sequence (O60674 536-812 W659A/W777A/F794H): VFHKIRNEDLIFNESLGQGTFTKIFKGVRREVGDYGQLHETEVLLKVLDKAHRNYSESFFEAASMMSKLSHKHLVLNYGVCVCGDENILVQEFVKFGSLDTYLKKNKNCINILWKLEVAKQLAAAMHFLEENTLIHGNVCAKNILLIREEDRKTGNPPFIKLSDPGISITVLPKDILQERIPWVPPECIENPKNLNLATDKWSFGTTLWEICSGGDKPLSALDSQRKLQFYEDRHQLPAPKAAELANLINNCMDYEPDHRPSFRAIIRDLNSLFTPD
Reported IC50 values are given for each entry in this list.

# annotated cases, reported IC50 shown
compound	reading
COC(=O)N[C@@H]1CC[C@@H](n2c(=O)n(C)c3cnc(Nc4ccc5cccc(C(F)(F)F)c5n4)cc32)C1	≤ 10 nM
[2H]C([2H])([2H])n1c(=O)n([C@@H]2CC[C@@H](NC(=O)OCc3ccccc3)C2)c2cc(Nc3ccc4cccc(C(F)(F)F)c4n3)ncc21	10 to 100 nM
[2H]C([2H])([2H])n1c(=O)n([C@H]2C[C@H](NC(=O)OC3CC3)C2)c2cc(Nc3cc(C(C)(C)O)c4cccc(C(F)(F)F)c4n3)ncc21	≤ 10 nM
[2H]C([2H])([2H])n1c(=O)n([C@@H]2CC[C@@H](NC(=O)OC)C2)c2cc(Nc3ccc4c(C(C)(C)O)ccc(C(F)(F)F)c4n3)ncc21	≤ 10 nM

Which IC50 reading was recorded for the compound "[2H]C([2H])([2H])n1c(=O)n([C@@H]2CC[C@@H](NC(=O)OC)C2)c2cc(Nc3ccc4cc(C#N)cc(C(F)(F)F)c4n3)ncc21" ?
≤ 10 nM

Which IC50 reading was recorded for the compound "[2H]C([2H])([2H])n1c(=O)n([C@@H]2CC[C@@H](NC(=O)OC)C2)c2cc(Nc3cc(NS(C)(=O)=O)c4cccc(C(F)(F)F)c4n3)ncc21" ?
10 to 100 nM

Which IC50 reading was recorded for the compound "COC(=O)N[C@@H]1CC[C@@H](n2c(=O)n(C)c3cnc(Nc4cc(Cl)c5cccc(C(F)(F)F)c5n4)cc32)C1" ?
≤ 10 nM

The reported measurements were obtained from patent US20250304582A1.
